Kindly supply the reported Fluorescence brightness, 100 nM DFHBI values for the records listed here.
- run.description: Fluorescence activation / brightness with DFHBI
- Assay type: biochemical
- applied.conditions: normalized 0 to 1 across all three chromophores; average ± SD of two protein concentrations
Numbers only.

As a guide, the following entries are already answered.
Problem: Give the measured Fluorescence brightness, 100 nM DFHBI of mFAP2b: SEQ ID NO:69; mFAP2.5 with V67I (protein, (1)..(1) optionally absent) MSRAAQLLPGTWQVTMTNEDGQTSQGQWHFQPRSPYTMDIVAQGTISDGRPIVGYGKATVKTPDTLDIDITYPSLGNIKAQGQITMDSPTQFKWDATTKGENDFHGRLTGTLQRQE .
Solution: 0.82

Problem: Next up: mFAP2.2: SEQ ID NO:41 (protein, (1)..(1) optionally absent) MSRAAQLLPGTWQVTMTNEDGQTSQGQMHFQPRSPYTMDVVAQGTISDGRPIVGYGKVTVKTPDTLDVDITYPSLGNIKAQGQITMDSPTQFKFDATTKGAGNFTGRLTGTLQRQE
Solution: 0.13

Now examine the next entry.
Problem: # query: Fluorescence brightness, 100 nM DFHBI of entry mFAP2.5: SEQ ID NO:60; mutations of mFAP2.3 and mFAP2.4 combined (protein, (1)..(1) optionally absent) MSRAAQLLPGTWQVTMTNEDGQTSQGQWHFQPRSPYTMDIVAQGTISDGRPIVGYGKATVKTPDTLDVDITYPSLGNIKAQGQITMDSPTQFKWDATTKGENDFHGRLTGTLQRQE
Solution: 0.83
